Target: Rac GTPase-activating protein 1 (Homo sapiens) (UniProt Q9H0H5)
Sequence (Q9H0H5 whole entry, looked up): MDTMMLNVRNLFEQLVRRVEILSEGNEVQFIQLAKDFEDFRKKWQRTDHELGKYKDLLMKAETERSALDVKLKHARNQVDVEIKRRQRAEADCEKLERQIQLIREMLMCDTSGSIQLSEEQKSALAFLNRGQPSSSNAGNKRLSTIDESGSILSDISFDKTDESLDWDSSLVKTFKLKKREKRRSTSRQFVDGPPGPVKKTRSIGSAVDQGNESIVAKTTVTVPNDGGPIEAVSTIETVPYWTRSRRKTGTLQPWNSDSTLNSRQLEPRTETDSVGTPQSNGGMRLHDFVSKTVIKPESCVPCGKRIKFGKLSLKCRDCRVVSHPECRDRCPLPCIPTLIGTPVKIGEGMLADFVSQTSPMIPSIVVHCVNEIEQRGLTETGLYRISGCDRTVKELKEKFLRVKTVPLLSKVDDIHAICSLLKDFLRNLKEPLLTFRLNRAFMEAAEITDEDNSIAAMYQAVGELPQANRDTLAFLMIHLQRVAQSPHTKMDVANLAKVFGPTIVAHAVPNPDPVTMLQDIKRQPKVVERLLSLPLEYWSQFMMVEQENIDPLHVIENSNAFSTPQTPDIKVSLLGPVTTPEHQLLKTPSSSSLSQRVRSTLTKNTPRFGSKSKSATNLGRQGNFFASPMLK
Assay: blockers of MgcRacGAP-driven Rac1 GTP hydrolysis – biochemical, ADP Hunter fluorescence, primary and confirmatory, confirmation (AID 624330);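 also: fluorescence reports GDP produced by GAP-driven GTP hydrolysis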
Conditions: MgcRacGAP-stimulated Rac1 GTP hydrolysis, at 30 µM, stronger effect = higher value, GST-tagged Rac1 F28L mutant substrate
The whole screen tested about 340,000 compounds, of which about 2,100 (0.62%) were called active. These entries were drawn from the full list. Results with a measured potency or affinity are listed apart.
# maps each entry to its inhibition
Give the quantity in %, number only.

# count of solved cases: 6
>>> val("Cc1c(Cl)c([N+](=O)[O-])nn1Cc1ccc(C(=O)N/N=C\\c2cccc(Br)c2)o1")
6.83
>>> val("COc1nn(CC(=O)N2N=C(C(F)F)CC2(O)C(F)F)cc1[N+](=O)[O-] (centres undefined)")
5.35
>>> val("COc1ccc(/C=N/n2nnnc2N)cc1OC")
8.91
>>> val("O=[N+]([O-])c1cccc(/C=N/NS(=O)(=O)c2ccccc2)c1")
3.56
>>> val("O=C(CCCc1ccccc1)Nc1ccnn1C1CCN(Cc2ccccc2F)CC1")
7.8
>>> val("CNCCCc1[nH]nc(N)c1C#N")
9.11

(Q) Recall and state the measured inhibition for CN(C)CCNC(=O)C(=O)NCC1OCCCN1S(=O)(=O)c1cccs1 (centres undefined) .
(A) 5.17

(Q) Recall and state the measured inhibition for `c1ccc(OCc2nc3ccccc3s2)cc1` .
(A) 7.47

(Q) Recall and state the measured inhibition for `COc1ccc([C@@H](OC)[C@@]2(Cc3ccc(O)cc3)N=C(N)N(C)C2=O)cc1` .
(A) 0.02

(Q) Recall and state the measured inhibition for `CCCCCN(C(=O)CCC(=O)OCC(=O)c1c(C)cc(C)cc1C)c1c(N)n(CCCC)c(=O)[nH]c1=O` .
(A) 3.32

* * *

Target: Rac GTPase-activating protein 1 (Homo sapiens) (UniProt Q9H0H5)
Assay: blockers of MgcRacGAP-driven Rac1 GTP hydrolysis – biochemical, ADP Hunter fluorescence, primary and confirmatory, confirmation (AID 624330);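 also: fluorescence reports GDP produced by GAP-driven GTP hydrolysis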
Settings: MgcRacGAP-stimulated Rac1 GTP hydrolysis, at 30 µM, stronger effect = higher value, GST-tagged Rac1 F28L mutant substrate
Out of some 340,000 compounds screened, about 2,100 (0.62%) were called active. Not all results are given here. Entries with a potency or affinity are not part of this list.
Readout label: inhibition (%)
Give the quantity in %, number only.

>>> val("O=C(Cn1cc(C(F)(F)F)ccc1=O)N/N=C/c1ccc(F)cc1")
-1.82
>>> val("CC1(C)CC(=O)C(CC2C(=O)CC(C)(C)CC2=O)C(=O)C1")
12.9
>>> val("CC12CCC3C(=CCc4cc(O)ccc43)C1CC(=NO)C2O (stereo not drawn)")
27.1
>>> val("Cc1ccc(/C=N/N2CCN(c3ccccc3)CC2)cc1")
14.1
>>> val("O=C(CCNC(=O)c1ccccc1)NC1CCCc2ccccc21 (stereo not drawn)")
6.57

With those in mind, consider the next compound.
(Q) Recall and state the measured inhibition for `C(=N\N1CCN(c2ccccc2)CC1)/c1ccccc1` .
(A) 9.75

* * *

Molecular target: Rac GTPase-activating protein 1 (Homo sapiens)
Test: blockers of MgcRacGAP-driven Rac1 GTP hydrolysis – biochemical, ADP Hunter fluorescence, primary and confirmatory, confirmation (AID 624330);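 also: fluorescence reports GDP produced by GAP-driven GTP hydrolysis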
Settings: MgcRacGAP-stimulated Rac1 GTP hydrolysis, at 30 µM, stronger effect = higher value, GST-tagged Rac1 F28L mutant substrate
Hit rate of the full screen: of about 340,000 compounds, about 2,100 (0.62%) were called active. Not all results are given here. Entries with a potency or affinity are not part of this list.
Readout label: inhibition (%)
Give the quantity in %, number only.

>>> val("COc1ccc(C(O)Cc2nccn2C)cc1 (centres undefined)")
2.89

(Q) Recall and state the measured inhibition for `O=C1CCN(S(=O)(=O)c2ccccc2)N1` .
(A) -45.5

(Q) Recall and state the measured inhibition for `Cc1oc(-c2ccccc2)nc1C(=O)OCC(=O)NCc1ccc(Cl)cc1` .
(A) -0.87

(Q) Recall and state the measured inhibition for `N#Cc1c(N)n(Cc2ccccc2)c(=O)c2cc([N+](=O)[O-])ccc12` .
(A) 9.07

* * *

Biological target: Rac GTPase-activating protein 1 (Homo sapiens)
Test: blockers of MgcRacGAP-driven Rac1 GTP hydrolysis – biochemical, ADP Hunter fluorescence, primary and confirmatory, confirmation (AID 624330);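 also: fluorescence reports GDP produced by GAP-driven GTP hydrolysis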
Details: MgcRacGAP-stimulated Rac1 GTP hydrolysis, at 30 µM, stronger effect = higher value, GST-tagged Rac1 F28L mutant substrate
About 2,100 (0.62%) of roughly 340,000 compounds were called active. The list is a sample of the results. Entries with a potency or affinity are not part of this list.
Readout label: inhibition (%)
Give the quantity in %, number only.

>>> val("O=C(CN1CCOCC1)Nc1ccc(-c2nc3ccccc3[nH]2)cc1")
10.7
>>> val("CCOc1ccc2[nH]c3ncccc3c(=O)c2c1")
3.15
>>> val("O=C(CCc1nc2ccccc2c(=O)[nH]1)Nc1ccc(F)c([N+](=O)[O-])c1")
2.61
>>> val("O=C(Nc1cccc(NC(=O)c2ccco2)c1)c1cccc(Br)c1")
7.43
>>> val("O=C1OCC/C1=C\\c1ccccc1")
5.73
>>> val("Cc1ccc(-c2cc(C(=O)Nc3ccc(S(=O)(=O)Nc4onc(C)c4C)cc3)[nH]n2)c(O)c1")
-1.18
>>> val("CC(NS(=O)(=O)CCNC(=O)c1ccccc1)c1ccccc1 (configuration not stated)")
4.33
>>> val("COc1ccc(NC(=O)[C@@H]2CCCN2S(=O)(=O)c2cccc3cccnc23)cc1")
7.98

With those in mind, consider the next compound.
(Q) Recall and state the measured inhibition for Cc1ccc(S(=O)(=O)N2CCC(C(=O)OC(C)C(=O)N3CCOCC3)CC2)cc1 (configuration not stated) .
(A) 4.25

* * *

Molecular target: Rac GTPase-activating protein 1 (Homo sapiens) (UniProt Q9H0H5)
Assay: blockers of MgcRacGAP-driven Rac1 GTP hydrolysis – biochemical, ADP Hunter fluorescence, primary and confirmatory, confirmation (AID 624330);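 also: fluorescence reports GDP produced by GAP-driven GTP hydrolysis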
Conditions: MgcRacGAP-stimulated Rac1 GTP hydrolysis, at 30 µM, stronger effect = higher value, GST-tagged Rac1 F28L mutant substrate
The campaign covered roughly 340,000 compounds. About 2,100 (0.62%) were called active. The list is a sample of the results. Entries with a potency or affinity are not part of this list.
Readout label: inhibition (%)
Give the quantity in %, number only.

(Q) Recall and state the measured inhibition for `O=C1c2ccccc2[C@@H]2C[C@@H](O)[C@H](Nc3ccccc3)CCN12` .
(A) 8.38

* * *

Target: Rac GTPase-activating protein 1 (Homo sapiens)
Experiment: blockers of MgcRacGAP-driven Rac1 GTP hydrolysis – biochemical, ADP Hunter fluorescence, primary and confirmatory, confirmation (AID 624330);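 also: fluorescence reports GDP produced by GAP-driven GTP hydrolysis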
Details: MgcRacGAP-stimulated Rac1 GTP hydrolysis, at 30 µM, stronger effect = higher value, GST-tagged Rac1 F28L mutant substrate
The campaign covered roughly 340,000 compounds. About 2,100 (0.62%) were called active. Not all results are given here. Entries with a potency or affinity are not part of this list.
Readout label: inhibition

>>> val("CCCCOC(=O)c1cc(Cl)c(O)c(OC)c1")
"13.4% (inactive)"
>>> val("C=CCN=c1scc(-c2ccco2)n1/N=C/c1ccc(O)c(O)c1O")
"-25.9% (inactive)"

(Q) Recall and state the measured inhibition for O=C1CC(c2ccccc2)CC(O)=C1C=Nc1ccc(Cl)cc1 (stereo unspecified) .
(A) 2.18% (inactive)

(Q) Recall and state the measured inhibition for `CCN(CC(=O)Nc1ccccc1OC)C(=O)COc1ccc(C#N)cc1` .
(A) 2.59% (inactive)

(Q) Recall and state the measured inhibition for CCC(Sc1nc2n[nH]c(C)c2c(=N)n1-c1ccc(C)c(Cl)c1)C(=O)N1CCOCC1 (stereo unspecified) .
(A) 8.01% (inactive)

(Q) Recall and state the measured inhibition for `CCc1ccc2c(c1)C(c1ccc([N+](=O)[O-])cc1)=NNC(c1ccc(C)cc1)=N2` .
(A) 11% (inactive)

(Q) Recall and state the measured inhibition for `CSCC[C@H](NC(=O)OC(C)(C)C)C(=O)N1CCC(C(=O)NCC(=O)Nc2ccc(C)cc2)CC1` .
(A) -4.04% (inactive)

(Q) Recall and state the measured inhibition for `CC1(C)CC(=O)C(C=Nc2ccncc2)=C(O)C1` .
(A) 6.33% (inactive)

(Q) Recall and state the measured inhibition for CC1CN(C(=O)CCNC(=O)c2ccccc2Cl)CC(C)O1 (stereo unspecified) .
(A) 4.76% (inactive)

(Q) Recall and state the measured inhibition for `O=C(O)c1cccc(-n2cccc2/C=C\[N+](=O)[O-])c1` .
(A) 26.7% (inactive)

(Q) Recall and state the measured inhibition for `CCOC(=O)Nc1ccc2c(c1)nc1n2CCN(CCOC)C1` .
(A) 8.24% (inactive)
